biological target: human HIPK2 kinase (Homo sapiens, UniProt Q9H2X6); assay: Human HIPK2 kinase in vitro inhibition assay (Cerep, LANCE); details: human recombinant enzyme, 10 µM ATP
Sequence (Q9H2X6 whole entry): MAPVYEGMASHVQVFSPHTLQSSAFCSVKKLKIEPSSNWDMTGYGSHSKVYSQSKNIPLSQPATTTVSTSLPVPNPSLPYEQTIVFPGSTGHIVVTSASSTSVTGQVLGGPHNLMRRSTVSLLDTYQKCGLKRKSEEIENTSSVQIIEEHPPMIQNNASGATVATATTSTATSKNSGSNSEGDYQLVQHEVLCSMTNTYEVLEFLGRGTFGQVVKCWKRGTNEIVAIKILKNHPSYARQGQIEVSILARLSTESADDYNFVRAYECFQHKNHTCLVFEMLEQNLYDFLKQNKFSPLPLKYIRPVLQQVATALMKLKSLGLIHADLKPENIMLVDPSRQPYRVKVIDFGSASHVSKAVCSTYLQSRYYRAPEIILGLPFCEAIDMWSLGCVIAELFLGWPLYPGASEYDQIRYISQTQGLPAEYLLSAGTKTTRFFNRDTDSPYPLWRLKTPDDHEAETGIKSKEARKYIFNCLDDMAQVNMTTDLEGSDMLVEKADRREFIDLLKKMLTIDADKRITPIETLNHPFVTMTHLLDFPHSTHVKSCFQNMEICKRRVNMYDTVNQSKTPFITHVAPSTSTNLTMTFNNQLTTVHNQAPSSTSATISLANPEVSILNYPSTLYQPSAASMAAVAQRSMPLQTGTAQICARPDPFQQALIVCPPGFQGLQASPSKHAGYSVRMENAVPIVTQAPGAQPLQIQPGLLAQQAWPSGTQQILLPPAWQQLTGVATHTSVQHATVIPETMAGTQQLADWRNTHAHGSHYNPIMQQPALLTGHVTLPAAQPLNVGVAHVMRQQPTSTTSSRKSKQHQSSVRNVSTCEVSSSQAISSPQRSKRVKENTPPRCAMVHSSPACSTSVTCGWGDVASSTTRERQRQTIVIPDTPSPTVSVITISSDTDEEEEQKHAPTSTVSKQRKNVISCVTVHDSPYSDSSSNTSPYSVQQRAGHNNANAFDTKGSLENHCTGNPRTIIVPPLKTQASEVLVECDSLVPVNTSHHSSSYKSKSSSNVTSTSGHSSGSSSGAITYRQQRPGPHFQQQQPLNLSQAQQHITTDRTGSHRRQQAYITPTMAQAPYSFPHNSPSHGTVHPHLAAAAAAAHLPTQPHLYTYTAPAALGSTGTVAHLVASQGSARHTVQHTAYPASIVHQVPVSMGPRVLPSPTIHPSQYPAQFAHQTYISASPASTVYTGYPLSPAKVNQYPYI
MEASURED PARAMETER: pIC50
The quantity pIC50 is defined as the negative base-10 logarithm of the molar concentration.

Looking up CNCc1ccc(-c2[nH]c3cc(F)cc4c3c2CCNC4=O)cc1 [rucaparib] , I see its pIC50 listed as 5.36

* * *

molecular target: human PIM2 kinase (Homo sapiens)
Sequence (Q9P1W9 whole entry): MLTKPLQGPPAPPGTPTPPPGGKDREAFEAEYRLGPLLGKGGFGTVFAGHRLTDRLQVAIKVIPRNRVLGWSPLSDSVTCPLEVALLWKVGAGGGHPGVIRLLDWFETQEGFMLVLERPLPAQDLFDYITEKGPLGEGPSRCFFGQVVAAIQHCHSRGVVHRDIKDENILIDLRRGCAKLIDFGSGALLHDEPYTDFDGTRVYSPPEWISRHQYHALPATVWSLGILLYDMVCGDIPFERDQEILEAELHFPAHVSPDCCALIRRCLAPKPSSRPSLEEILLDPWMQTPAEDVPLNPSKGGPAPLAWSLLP
MEASURED PARAMETER: IC50 (µM)
Just the number please, in µM, no unit attached.

Looking up `CNCc1ccc(-c2[nH]c3cc(F)cc4c3c2CCNC4=O)cc1` , I see its IC50 listed as 7.7

* * *

molecular target: human CDK9 kinase (Homo sapiens, UniProt P50750); assay: Human CDK9 kinase in vitro inhibition assay (Cerep, LANCE); settings: human recombinant enzyme, 10 µM ATP
Sequence (P50750 whole entry): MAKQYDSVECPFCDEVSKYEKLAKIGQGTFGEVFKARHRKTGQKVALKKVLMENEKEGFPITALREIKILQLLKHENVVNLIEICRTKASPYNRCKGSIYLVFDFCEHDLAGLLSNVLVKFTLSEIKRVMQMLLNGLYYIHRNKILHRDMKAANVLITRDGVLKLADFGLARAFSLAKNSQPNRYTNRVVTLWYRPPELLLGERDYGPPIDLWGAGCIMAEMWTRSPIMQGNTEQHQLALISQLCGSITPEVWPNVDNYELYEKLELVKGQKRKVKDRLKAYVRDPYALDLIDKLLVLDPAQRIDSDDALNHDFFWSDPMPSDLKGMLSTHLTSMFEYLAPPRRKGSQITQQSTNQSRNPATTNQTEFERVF
Sequence (O60563 whole entry partner): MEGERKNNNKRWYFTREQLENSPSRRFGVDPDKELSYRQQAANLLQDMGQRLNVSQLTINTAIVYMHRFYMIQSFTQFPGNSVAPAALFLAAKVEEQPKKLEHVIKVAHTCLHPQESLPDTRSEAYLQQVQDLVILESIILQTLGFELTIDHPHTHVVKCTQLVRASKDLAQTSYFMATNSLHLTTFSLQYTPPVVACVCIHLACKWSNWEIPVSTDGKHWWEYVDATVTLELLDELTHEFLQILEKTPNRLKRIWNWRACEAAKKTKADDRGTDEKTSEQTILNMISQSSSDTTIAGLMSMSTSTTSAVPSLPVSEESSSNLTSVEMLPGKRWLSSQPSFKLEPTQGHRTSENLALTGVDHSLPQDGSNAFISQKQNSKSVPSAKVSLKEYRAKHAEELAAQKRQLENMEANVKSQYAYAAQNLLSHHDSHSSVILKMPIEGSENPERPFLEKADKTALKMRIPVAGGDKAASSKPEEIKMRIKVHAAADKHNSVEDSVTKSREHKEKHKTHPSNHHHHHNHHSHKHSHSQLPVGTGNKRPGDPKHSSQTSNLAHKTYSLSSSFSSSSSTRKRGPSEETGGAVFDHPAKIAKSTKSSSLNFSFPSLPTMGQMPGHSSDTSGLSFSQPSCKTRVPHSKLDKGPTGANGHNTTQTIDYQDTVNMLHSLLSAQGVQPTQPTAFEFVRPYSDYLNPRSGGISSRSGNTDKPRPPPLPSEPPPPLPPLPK
MEASURED PARAMETER: pIC50
The quantity pIC50 is defined as the negative base-10 logarithm of the molar concentration.

Looking up `C[C@]1(c2nc3c(C(N)=O)cccc3[nH]2)CCCN1` , I see its pIC50 listed as 5.09

Looking up `CNCc1ccc(-c2[nH]c3cc(F)cc4c3c2CCNC4=O)cc1` , I see its pIC50 listed as 5.57
